Biological target: GPR40 (Homo sapiens, UniProt O14842)
Construct: expressed in transfected cells
Sequence (O14842 whole entry): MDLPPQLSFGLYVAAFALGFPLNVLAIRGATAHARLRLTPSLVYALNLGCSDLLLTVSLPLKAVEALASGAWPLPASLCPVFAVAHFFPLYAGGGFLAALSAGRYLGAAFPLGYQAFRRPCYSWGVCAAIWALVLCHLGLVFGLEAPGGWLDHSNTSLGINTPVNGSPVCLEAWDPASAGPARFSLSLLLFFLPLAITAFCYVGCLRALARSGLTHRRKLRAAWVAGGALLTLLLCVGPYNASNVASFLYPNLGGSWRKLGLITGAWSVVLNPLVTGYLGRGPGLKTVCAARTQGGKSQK
Test: Cell-Based Aequorin Assay (agonistic activity)
Details: 1 μM test compound; percentage of the activity of the reference agonist at its EC100 concentration
Endpoint: Agonistic activity (%, 1 μM)

The examples below pair each entry with its known result.
CC#C[C@@H](CC(=O)O)c1ccc(O[C@@H]2CCc3c(-c4ccc(OCCN5CCS(=O)(=O)CC5)nc4)ccc(F)c32)cc1 [Example 3]; + (+: under 40)
CC#C[C@@H](CC(=O)O)c1ccc(O[C@@H]2CCc3c(-c4cnc(OC5CCOCC5)c(C#N)c4)ccc(F)c32)cc1 [Example 19]; +++ (+++: over 70)
CC#C[C@@H](CC(=O)O)c1ccc(O[C@@H]2CCc3c(-c4ccc(O[C@H]5CCOC5)nc4)ccc(F)c32)cc1 [Example 7]; +++ (+++: over 70)
CC#C[C@@H](CC(=O)O)c1ccc(O[C@@H]2CCc3c(-c4cncc(O[C@@H]5CCOC5)c4)ccc(F)c32)cc1 [Example 15]; ++ (++: 40-70)

Inquiry: Recorded Agonistic activity (%, 1 μM) of CC#C[C@@H](CC(=O)O)c1ccc(O[C@@H]2CCc3c(-c4cnc(O[C@@H]5CCOC5)c(C#N)c4)ccc(F)c32)cc1 [Example 18] , please.
Reply text: +++ (+++: over 70)

Inquiry: Would you kindly share the measured Agonistic activity (%, 1 μM) for CC#C[C@@H](CC(=O)O)c1ccc(O[C@@H]2CCc3c(-c4ccc(O[C@@H]5CCOC5)nc4)ccc(F)c32)cc1 [Example 5] ?
Reply text: +++ (+++: over 70)

Inquiry: Find the recorded Agonistic activity (%, 1 μM) belonging to CC#C[C@@H](CC(=O)O)c1ccc(O[C@@H]2CCc3c2ccc(F)c3-c2ccc(OC3CCOCC3)nc2)cc1 [Example 24] and report it.
Reply text: +++ (+++: over 70)

Inquiry: State the recorded Agonistic activity (%, 1 μM) for this entry: CC#C[C@@H](CC(=O)O)c1ccc(O[C@@H]2CCc3c(-c4cnc(OC5CCOCC5)c(Cl)c4)ccc(F)c32)cc1 [Example 17]
Reply text: +++ (+++: over 70)

Inquiry: Any idea what Agonistic activity (%, 1 μM) was measured for CC#C[C@@H](CC(=O)O)c1ccc(O[C@@H]2CCc3c2ccc(C#N)c3-c2ccc(O[C@@H]3CCOC3)nc2)cc1 [Example 20] ?
Reply text: +++ (+++: over 70)

Inquiry: Query: Agonistic activity (%, 1 μM); subject: CC#C[C@@H](CC(=O)O)c1ccc(O[C@@H]2CCc3c(-c4ccc(OC5CCOCC5)nc4)ccc(F)c32)cc1 [Example 6]
Reply text: +++ (+++: over 70)

Inquiry: For the compound shown here, CC#C[C@@H](CC(=O)O)c1ccc(O[C@@H]2CCc3c(-c4ccc(OC5CCS(=O)(=O)CC5)nc4)ccc(F)c32)cc1 [Example 1] , give the reported Agonistic activity (%, 1 μM).
Reply text: + (+: under 40)

Inquiry: Quick one: Agonistic activity (%, 1 μM) for CC#C[C@@H](CC(=O)O)c1ccc(O[C@@H]2CCc3c(-c4cnc(O[C@@H]5CCOC5)cc4C)ccc(F)c32)cc1 [Example 8] ?
Reply text: ++ (++: 40-70)

Inquiry: Requested read-out: Agonistic activity (%, 1 μM). Entry: CC#C[C@@H](CC(=O)O)c1ccc(O[C@@H]2CCc3c2ccc(F)c3-c2ccc(O[C@@H]3CCOC3)nc2)cc1 [Example 21]
Reply text: +++ (+++: over 70)

Inquiry: Quick one: Agonistic activity (%, 1 μM) of CC#C[C@@H](CC(=O)O)c1ccc(O[C@@H]2CCc3c(-c4cncc(OC5CCOCC5)c4)ccc(F)c32)cc1 [Example 16] ?
Reply text: ++ (++: 40-70)

Inquiry: Query (compound): Cc1cc(OCCCS(C)(=O)=O)cc(C)c1-c1cccc(COc2ccc3c(c2)OC[C@H]3CC(=O)O)c1 [Comparative Example 1, reference compound] ; field requested: Agonistic activity (%, 1 μM)
Reply text: +++ (+++: over 70)
